Target: recombinant GSK3 beta (Homo sapiens)
Construct: His; made in house; host or cells: Sf9 insect cells; This is inferred: 'the purified recombinant GSK3 beta' points back to the protein of b91
Sequence (P49841 whole entry): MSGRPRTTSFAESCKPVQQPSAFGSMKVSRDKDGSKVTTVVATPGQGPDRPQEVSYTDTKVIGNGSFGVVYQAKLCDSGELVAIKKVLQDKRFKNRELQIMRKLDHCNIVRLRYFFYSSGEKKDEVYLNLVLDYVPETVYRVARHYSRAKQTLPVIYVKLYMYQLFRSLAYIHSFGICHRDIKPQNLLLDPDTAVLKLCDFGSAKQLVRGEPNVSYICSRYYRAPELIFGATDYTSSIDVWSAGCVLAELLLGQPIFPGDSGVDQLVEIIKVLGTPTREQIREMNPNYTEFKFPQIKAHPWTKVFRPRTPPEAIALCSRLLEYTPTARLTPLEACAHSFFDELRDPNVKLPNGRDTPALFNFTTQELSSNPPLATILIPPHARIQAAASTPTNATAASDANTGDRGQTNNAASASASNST
Experiment: Surface plasma resonance (SPR) analysis
Type: binding
Conditions: immobilized GSK3 protein, read-out: binding to GSK3 (could not bind up to)
pKd: −log10 of the molar value. Ends that are not written are not given here.
measured.property: pKd

// query pKd for VEPQKAAEEAIHRAEAVQR [mutant Axin peptide, VEPQKAAEEAIHRAEAVQR] ?
// result < 4.00
